# assaySummary: qHTS for Inhibitors of human tyrosyl-DNA phosphodiesterase 1 (TDP1): qHTS in cells in absence of CPT; also: nearly all actives have a fitted effect of over 55% in size
# measurementConditions: DT40 Tdp1-/- hTDP1 cells, no CPT, ATP luminescence, 48 h
Out of some 420,000 compounds screened, about 64,000 (15%) were called active. Not shown: some 27% with an inconclusive outcome. Calls follow the shape of the dose curve; as a rule, active = well fitted inhibition curve with a large enough effect; inconclusive = small, poorly fitted or top-dose-only effect; inactive = flat fitted curve, though single readings scatter. A selection follows.
Outcome codes: class 1 for active, class 0 for inactive

> print(dat)
                                   molecule  assignedclass
1  Cc1ccc(N=C2SCCCN2C(=O)c2cccc(N3C(=O)CCC3=O)c2)cc1Cl        class 0
2  CCOc1ccc(C(=O)NC2CCN(CC(=O)NCc3cccs3)CC2)cc1        class 0
3  COc1cc2[nH]c(=O)n(CCC(=O)NC3CCN(Cc4ccccc4)CC3)c(=O)c2cc1OC        class 0
4  COC(=O)c1cccc(NC(=O)CN2CCC(NC(=O)c3cc(OC)c(OC)c(OC)c3)CC2)c1        class 1
5  Cc1ccc(CCN2CC(C(=O)O)CC2=O)cc1 (stereo not given)        class 0
